The origin of these recorded values is patent US9822414B2.

System: HepG2 cell
property-name: Prediction (class prediction results using the method of the invention)

Examples with their reported Prediction (class prediction results using the method of the invention) follow.
compound	target-under-test	result
Oc1ccccc1	HepG2 cell	GTX
Cc1cccc(Nc2cc(Cl)nc(SCC(=O)O)n2)c1C	HepG2 cell	NGTX
CC/C(=C(/CC)c1ccc(O)cc1)c1ccc(O)cc1	HepG2 cell	GTX
O=c1ccc2ccccc2o1	HepG2 cell	NGTX
CCCCC(CC)COC(=O)c1ccccc1C(=O)OCC(CC)CCCC (stereo not shown)	HepG2 cell	NGTX

CCNc1nc(Cl)nc(NCC)n1 has a reported Prediction (class prediction results using the method of the invention) of NGTX

C=CCc1ccc(O)c(OC)c1 has a reported Prediction (class prediction results using the method of the invention) of NGTX+

COc1cc(/C=C/C(=O)CC(=O)/C=C/c2ccc(O)c(OC)c2)ccc1O has a reported Prediction (class prediction results using the method of the invention) of NGTX

CN(C)N=O has a reported Prediction (class prediction results using the method of the invention) of GTX+

ClC(Cl)Br has a reported Prediction (class prediction results using the method of the invention) of NGTX

Nc1ccc(-c2ccc(N)cc2)cc1 has a reported Prediction (class prediction results using the method of the invention) of GTX

Cn1cnc([N+](=O)[O-])c1Sc1ncnc2nc[nH]c12 has a reported Prediction (class prediction results using the method of the invention) of GTX

CCC1(c2ccccc2)C(=O)NC(=O)NC1=O has a reported Prediction (class prediction results using the method of the invention) of NGTX

----------
Tested on: HepG2 cell
Test: Class prediction of in vivo genotoxicity by the method of the invention (Ames stratification plus three-gene expression in HepG2)
Details: 62 compounds, three replicates, HepG2 24 h
property-name: Prediction (class prediction results using the method of the invention)

compound	result
CCOP(=S)(OCC)Oc1cc(C)nc(C(C)C)n1	NGTX
CC(=O)Nc1ccc2c(c1)Cc1ccccc1-2	GTX+
CCN(N=O)C(N)=O	GTX
CCC[CH2][Sn]([CH2]CCC)([CH2]CCC)[O][Sn]([CH2]CCC)([CH2]CCC)[CH2]CCC	GTX
O=P1(N(CCCl)CCCl)NCCCO1 (centres unmarked)	GTX

Field: next compound
CC(=O)Nc1cccc2c1-c1ccccc1C2 has a reported Prediction (class prediction results using the method of the invention) of NGTX+

----------
System: HepG2 cell | Read-out: Average result over three measurements

Examples with their reported Average result over three measurements follow.
molecule	Average result over three measurements
COc1ccc(N)cc1	GTX
CCC1(c2ccccc2)C(=O)NC(=O)NC1=O	NGTX
COc1cc(/C=C/C(=O)CC(=O)/C=C/c2ccc(O)c(OC)c2)ccc1O	NGTX
O=P1(N(CCCl)CCCl)NCCCO1 (stereo not drawn)	GTX
[NH2][Pt]([NH2])([Cl])[Cl] [cisPt]	GTX

Field: next molecule
Tested system HepG2 cell; Average result over three measurements recorded for Oc1cccc2cccnc12 was GTX

----------
System: HepG2 cell | Read-out: Average result over three measurements

Examples with their reported Average result over three measurements follow.
compound	Average result over three measurements
O=C(O)CCCc1ccc(N(CCCl)CCCl)cc1	GTX
Cc1cccc(Nc2cc(Cl)nc(SCC(=O)O)n2)c1C	NGTX
CCCCC(CC)COC(=O)c1ccccc1C(=O)OCC(CC)CCCC (centres unmarked)	NGTX
Cn1cnc([N+](=O)[O-])c1Sc1ncnc2nc[nH]c12	GTX
COC(=O)[C@H]1[C@H]2C[C@@H]3c4[nH]c5cc(OC)ccc5c4CCN3C[C@H]2C[C@@H](OC(=O)c2cc(OC)c(OC)c(OC)c2)[C@@H]1OC	NGTX
Nc1ccc(-c2ccc(N)cc2)cc1	GTX
Cc1c2ccccc2c(C)c2c1ccc1ccccc12	GTX
ClC1C(Cl)C(Cl)C(Cl)C(Cl)C1Cl (centres unmarked)	NGTX
O=c1c(O)c(-c2ccc(O)c(O)c2)oc2cc(O)cc(O)c12	NGTX
CCN(N=O)C(N)=O	GTX

CC(=O)Nc1ccc2c(c1)Cc1ccccc1-2 has a reported Average result over three measurements of GTX

O=C1CCCCCN1 has a reported Average result over three measurements of NGTX

COc1cc2c(c3oc(=O)c4c(c13)CCC4=O)[C@@H]1C=CO[C@@H]1O2 has a reported Average result over three measurements of GTX

O=c1[nH]cc(F)c(=O)[nH]1 has a reported Average result over three measurements of NGTX

Oc1ccccc1 has a reported Average result over three measurements of GTX

CCNc1nc(Cl)nc(NCC)n1 has a reported Average result over three measurements of NGTX

COc1ccc(C)cc1N has a reported Average result over three measurements of GTX

CC(=O)Nc1cccc2c1-c1ccccc1C2 has a reported Average result over three measurements of NGTX

CC/C(=C(/CC)c1ccc(O)cc1)c1ccc(O)cc1 has a reported Average result over three measurements of GTX

O=c1ccc2ccccc2o1 has a reported Average result over three measurements of NGTX
